# Tested on: 3D7
# EXPERIMENT DESCRIPTION: qHTS profiling for inhibitors of Plasmodium falciparum proliferation (AID 504749); further: nearly all actives have a fitted effect of over 60% in size
# EXPERIMENTAL CONTEXT: P. falciparum in erythrocytes, SYBR Green DNA, 72 h; series mostly up to 28.7 µM
Inconclusive results are not listed. Calls of active or inactive are those of the source. The call rests on the fitted dose curve; in most records, active means well fitted inhibition curve with a large enough effect; inconclusive means small, poorly fitted or top-dose-only effect; inactive means flat fitted curve, though single readings scatter.
Can you answer with just one of these options? yes = active, no = inactive

Solved cases (5 shown):
{"columns": ["COMPOUND", "CATEGORY"],
 "data": [
  ["Nc1ccc(S(=O)(=O)Nc2ncccn2)cc1", "no"],
  ["COC(=O)C[C@](O)(CCCC(C)(C)O)C(=O)O[C@@H]1C(OC)=C[C@]23CCCN2CCc2cc4c(cc2[C@H]13)OCO4", "yes"],
  ["CC1(C)O[C@@H]2C[C@@H]3[C@H]4C[C@@H](F)C5=CC(=O)C=C[C@]5(C)[C@@]4(F)[C@@H](O)C[C@]3(C)[C@]2(C(=O)CO)O1", "no"],
  ["CC=CC1=C(C(=O)O)N2C(=O)[C@H](NC(=O)[C@H](N)c3ccc(O)cc3)[C@@H]2SC1", "no"],
  ["Nc1ccn([C@@H]2O[C@H](CO)[C@H](O)C2(F)F)c(=O)n1", "yes"]
]}

Give the logged outcome of this assay for the following compound: O=C(O)CO.[NH2-].[NH2-].[Pt+2]
no

Give the logged outcome of this assay for the following compound: COc1cc(C(=O)NS(=O)(=O)c2ccccc2C)ccc1Cc1cn(C)c2ccc(NC(=O)OC3CCCC3)cc12
no

Give the logged outcome of this assay for the following compound: CN1c2cc(O)c(N=NC(N)=O)cc2CC1S(=O)(=O)O (centres undefined)
no

Give the logged outcome of this assay for the following compound: CCC1=C[C@@H]2CN(C1)Cc1c([nH]c3ccccc13)[C@@](C(=O)OC)(c1cc3c(cc1OC)N(C)[C@@H]1[C@@](O)(C(=O)OC)[C@H](OC(C)=O)[C@]4(CC)C=CCN5CC[C@]31[C@@H]54)C2
yes

----------
# EXPERIMENT DESCRIPTION: Quantitative High-Throughput drug screen in 47 multiple myeloma cell lines against the NCATS MIPE library collection: LP1_DSMZ cell viability assay (AID 1918982); further: nearly all actives have a fitted effect of over 35% in size
# EXPERIMENTAL CONTEXT: LP1 myeloma viability, CellTiter-Glo ATP luminescence, 48 h; series mostly up to 45.8 µM
Results filed as inconclusive are left out. Activity calls are given as the source filed them. The call rests on the fitted dose curve; in most records, active means well fitted cell-killing curve with a large enough effect; inconclusive means small, poorly fitted or top-dose-only effect, or effect the other way; inactive means no such curve, though single readings can be large or run the other way.
Can you answer with just one of these options? active, inactive

{"columns": ["COMPOUND", "CATEGORY"],
 "data": [
  ["O=C(CCCCCCC(=O)Nc1ccc([C@H]2O[C@@H](CSc3nc(-c4ccccc4)c(-c4ccccc4)o3)C[C@@H](c3ccc(CO)cc3)O2)cc1)NO", "active"],
  ["O=c1[nH]c(=O)n(C2CCCO2)cc1F (centres undefined)", "inactive"],
  ["CCOc1cc2ncc(C#N)c(Nc3ccc(F)c(Cl)c3)c2cc1NC(=O)C=CCN(C)C", "active"],
  ["C=CC(=O)Nc1cc2c(Nc3ccc(F)c(Cl)c3)ncnc2cc1OCCCN1CCOCC1", "active"]
]}

Give the logged outcome of this assay for the following compound: CNC(=O)c1ccc(-c2cnc3ncc(Cc4ccc5ncccc5c4)n3n2)cc1F
inactive

Give the logged outcome of this assay for the following compound: Cc1ccc(S(=O)(=O)Nc2cc(Cl)ccc2C(=O)Nc2nc(-c3ccccc3)cs2)cc1
active

Give the logged outcome of this assay for the following compound: Cc1cc(Nc2cc(NC(=O)c3c(Cl)cccc3Cl)ccn2)nc(N)n1
active

Give the logged outcome of this assay for the following compound: CC1(C)CCC(c2ccc(Cl)cc2)=C(CN2CCN(c3ccc(C(=O)NS(=O)(=O)c4ccc(N[C@H](CCN5CCOCC5)CSc5ccccc5)c(S(=O)(=O)C(F)(F)F)c4)cc3)CC2)C1
active

Give the logged outcome of this assay for the following compound: Cc1cccc(C=NNc2cc(N3CCOCC3)nc(OCCc3ccccn3)n2)c1
active

----------
# EXPERIMENT DESCRIPTION: Quantitative High-Throughput drug screen in 47 multiple myeloma cell lines against the NCATS MIPE library collection: KMS27_JCRB cell viability assay (AID 1918970); further: potency means the concentration at half of the fitted maximal effect; nearly all actives have a fitted effect of over 30% in size
# EXPERIMENTAL CONTEXT: KMS27 myeloma cells, CellTiter-Glo ATP viability, 48 h; series mostly up to 45.8 µM
Records with an inconclusive call do not appear. Activity calls are given as the source filed them. The call rests on the fitted dose curve; in most records, active means well fitted cell-killing curve with a large enough effect; inconclusive means small, poorly fitted or top-dose-only effect, or effect the other way; inactive means no such curve, though single readings can be large or run the other way.
ASSAY METRIC: Potency

Worked set:
{"columns": ["MOLECULE", "Potency"],
 "data": [
  ["OCc1ccc(-c2ccc(-c3ccc(CO)s3)o2)s1", "11.8 nM (active)"],
  ["Cc1ccc(C(=O)Nc2ccc(CN3CCN(C)CC3)c(C(F)(F)F)c2)cc1C#Cc1cnc2cccnn12", "2640 nM (active)"],
  ["COc1ccc(C(=O)CC2(O)C(=O)Nc3c(Cl)ccc(Cl)c32)cc1 (stereo not given)", "1050 nM (active)"],
  ["O=C(O)c1ccc2cc(-c3ccc(O)c(C45CC6CC(CC(C6)C4)C5)c3)ccc2c1", "187 nM (active)"]
]}

Alright, here's another molecule for you.
Query Cc1cc(Nc2nc(N[C@@H](C)c3ccc(F)cc3)c(C#N)cc2F)n[nH]1 yields Potency of 935 nM (active)

----------
# EXPERIMENT DESCRIPTION: Quantitative High-Throughput drug screen in 47 multiple myeloma cell lines against the NCATS MIPE library collection: MMM1_PLB cell viability assay (AID 1918976); further: potency means the concentration at half of the fitted maximal effect; nearly all actives have a fitted effect of over 35% in size
# EXPERIMENTAL CONTEXT: MMM1 myeloma cells viability, CellTiter-Glo, 48 h; series mostly up to 45.8 µM
Results filed as inconclusive are left out. The source made the active and inactive calls. Calls come from the whole dose curve; as a rule, active = well fitted cell-killing curve with a large enough effect; inconclusive = small, poorly fitted or top-dose-only effect, or effect the other way; inactive = no such curve, though single readings can be large or run the other way.
ASSAY METRIC: Potency

Worked set:
{"columns": ["COMPOUND", "Potency"],
 "data": [
  ["CCn1cc(-c2ccnc3[nH]c(-c4cccc(CN(C)C)c4)cc23)c(-c2ccc(NC(=O)N(C)C)cc2)n1", "14.8 µM (active)"],
  ["Cc1ccc(C(N)=O)cc1Nc1nccc(-c2cn(C(C)C)c3cnccc23)n1", "16.6 µM (active)"],
  ["Cn1c2cc(S(C)=O)sc2c2cnn(Cc3cccc(N)c3)c(=O)c21 (centres undefined)", "3.32 µM (active)"],
  ["COc1cc2ncn(-c3cc(OCc4ccccc4C(F)(F)F)c(C(N)=O)s3)c2cc1OC", "20.9 µM (active)"],
  ["CN1CCN(c2ccc3nc(-c4c(N)c5c(F)cccc5[nH]c4=O)[nH]c3c2)CC1", "20.9 µM (active)"]
]}

Query COc1cc2c(cc1-c1c(C)noc1C)ncc1[nH]c(=O)n([C@H](C)c3ccccn3)c12 yields Potency of 7.43 µM (active)

Query Cc1cc(Nc2ncnc3ccc(-c4ccc(CNCCS(C)(=O)=O)o4)cc23)ccc1Oc1ccn2ncnc2c1 yields Potency of 3.32 µM (active)

Query Cc1nc(Nc2n[nH]c3c2CN(C(=O)N[C@H](CN(C)C)c2ccccc2)C3(C)C)c2sccc2n1 yields Potency of 4.69 µM (active)

Query COc1ccc(OC)c(-c2nnc3ccc(-c4ccc(OC)c(O[C@@H]5CCOC5)c4)nn23)c1 yields Potency of 11.8 µM (active)

----------
# EXPERIMENT DESCRIPTION: Quantitative High-Throughput drug screen in 47 multiple myeloma cell lines against the NCATS MIPE library collection: KMS28PE_JCRB cell viability assay (AID 1918983); further: nearly all actives have a fitted effect of over 35% in size
# EXPERIMENTAL CONTEXT: KMS28PE multiple myeloma viability, CellTiter-Glo ATP, 48 h; series mostly up to 45.8 µM
Inconclusive results are not listed. Activity calls are given as the source filed them. Calls come from the whole dose curve; as a rule, active = well fitted cell-killing curve with a large enough effect; inconclusive = small, poorly fitted or top-dose-only effect, or effect the other way; inactive = no such curve, though single readings can be large or run the other way.
Can you answer with just one of these options? 1 = active, 0 = inactive

Solved cases (3 shown):
{"columns": ["COMPOUND", "CATEGORY"],
 "data": [
  ["O=c1[nH]nc(Sc2ncc([N+](=O)[O-])s2)n1-c1ccc2c(c1)OCCO2", 1],
  ["CC(C)c1cnn2c(NCc3ccccc3)cc(N[C@@H](CO)[C@H](O)CO)nc12", 1],
  ["Fc1cc(-c2cccc3ncc(-c4cnn(C5CCNCC5)c4)nc23)cc(F)c1CN1CCOCC1", 1]
]}

Give the logged outcome of this assay for the following compound: CCN1CCN(CC(=O)Nc2ccc(-c3cccc4c(=O)cc(N5CCOCC5)oc34)c3sc4ccccc4c23)CC1
1

Give the logged outcome of this assay for the following compound: CN(C)Cc1c(C(=O)NCCOc2ccc(C(=O)NO)cc2)oc2ccccc12
1

Give the logged outcome of this assay for the following compound: C=CCn1c(=O)c2cnc(Nc3ccc(N4CCN(C)CC4)cc3)nc2n1-c1cccc(C(C)(C)O)n1
1

Give the logged outcome of this assay for the following compound: Cn1c(CNc2ccc(C(=N)N)cc2)nc2cc(C(=O)N(CCC(=O)O)c3ccccn3)ccc21
0

Give the logged outcome of this assay for the following compound: Cc1cc(Nc2cc(NC(=O)c3c(Cl)cccc3Cl)ccn2)nc(N)n1
1

Give the logged outcome of this assay for the following compound: CC(O)C1C(=O)N2C(C(=O)O)=C(SC3CNC(C(=O)N(C)C)C3)C(C)C12 (stereo unspecified)
0

Give the logged outcome of this assay for the following compound: Cc1cn2cc(C(=O)N(C)CCO)cc(N[C@@H]3CCOc4cccc(C)c43)c2n1
0

Give the logged outcome of this assay for the following compound: CC[C@@H]1C(=O)N(C)c2cnc(Nc3ccc(C(=O)NC4CCC(N5CCN(CC6CC6)CC5)CC4)cc3OC)nc2N1C(C)C (stereo partly specified)
1
